# system.under.test: KAT2A (Homo sapiens (Human))
# Sequence (Q92830 whole entry): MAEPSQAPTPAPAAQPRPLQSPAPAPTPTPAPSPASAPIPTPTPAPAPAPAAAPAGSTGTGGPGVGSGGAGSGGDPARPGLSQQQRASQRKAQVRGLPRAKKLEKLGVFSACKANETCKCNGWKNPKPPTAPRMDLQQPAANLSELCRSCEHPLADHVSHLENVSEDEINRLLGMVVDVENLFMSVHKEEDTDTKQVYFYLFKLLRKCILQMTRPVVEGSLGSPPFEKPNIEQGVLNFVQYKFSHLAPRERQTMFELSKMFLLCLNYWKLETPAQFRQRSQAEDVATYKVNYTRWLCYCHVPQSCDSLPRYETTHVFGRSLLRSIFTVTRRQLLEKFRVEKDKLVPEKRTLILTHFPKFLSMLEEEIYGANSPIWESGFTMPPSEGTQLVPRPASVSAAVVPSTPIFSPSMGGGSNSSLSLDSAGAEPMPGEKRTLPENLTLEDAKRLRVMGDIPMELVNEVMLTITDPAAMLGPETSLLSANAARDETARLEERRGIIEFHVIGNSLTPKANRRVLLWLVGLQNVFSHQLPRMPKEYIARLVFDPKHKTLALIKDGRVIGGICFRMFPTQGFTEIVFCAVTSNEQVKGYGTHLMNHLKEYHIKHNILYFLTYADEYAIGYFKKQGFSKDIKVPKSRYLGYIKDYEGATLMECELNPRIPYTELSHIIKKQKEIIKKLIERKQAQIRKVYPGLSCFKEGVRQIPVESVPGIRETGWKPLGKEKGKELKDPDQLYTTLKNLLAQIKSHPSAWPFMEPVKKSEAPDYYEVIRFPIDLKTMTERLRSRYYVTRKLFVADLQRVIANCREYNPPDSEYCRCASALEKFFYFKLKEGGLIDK
# protocol.details: KAT2A acetyltransferase biochemical assay (RapidFire mass spectrometry, AcCoA to CoA)
# test.context: read-out: KAT2A Ki at 1 μM AcCoA, 5 μM H3 1-21 peptide, 0.5 nM KAT2A, 90-minute reaction
endpoint: Ki (nM)

[[record]]
compound = "CCS(=O)(=O)NC(=O)Cc1ccc(O[C@@H]2CC[C@@H](NC(=O)[C@@]3(F)CNC4(CCCC4)C3)C2)c(-c2cccc(F)c2C2CCC2)c1 (single isomer, unassigned) [Example C70]"
result_units = "nM"
result = 0.04


A. O=C(Cc1ccc(O[C@@H]2CC[C@@H](NC(=O)[C@@]3(F)CNC4(CCC4)C3)C2)c(-c2cccc(F)c2C2CCC2)c1)NS(=O)(=O)C1CC1 (single isomer, unassigned) [Example C31]
B. CC(C)(C(=O)NS(=O)(=O)C1(C)CC1)c1ccc(O[C@@H]2CC[C@@H](NC(=O)[C@@]3(F)CNC4(CCC4)C3)C2)c(-c2cccc(F)c2C2CC2)c1 (single isomer, unassigned) [Example C22]
Q. Recorded Ki values differ for A and B ; which one is higher? I would appreciate it if you answered with the label of your choice.
A. B
